Test system: Mycobacterium tuberculosis
Measurement description: Antitubercular activity against Mycobacterium tuberculosis ATCC 35801 infected in CD1 mouse lung at 25 mg/kg, iv after 6 weeks
Type: functional
Exam item: assign YES to entries whose log10cfu is below 10 and NO to entries at or above 10. Note that a value of exactly 10 receives NO.

In [3]: df
Out[3]:
                                   compound  group
0  O=C(c1ccncc1)N1N=C(c2cc3ccccc3o2)CC1c1ccccc1O (stereo not given)    YES
1  COc1ccc(C2CC(c3cc4ccccc4o3)=NN2C(=O)c2ccncc2)cc1 (stereo not given)    YES
2  O=C(c1ccncc1)N1N=C(c2cc3ccccc3o2)CC1c1ccccc1Cl (stereo not given)     NO
3  CCn1cc(C(=O)N2N=C(c3cc4ccccc4o3)CC2c2ccc(OC)cc2)c(=O)c2ccc(C)nc21 (stereo not given)    YES
4  O=C(c1ccncc1)N1N=C(c2cc3ccccc3o2)CC1/C=C/c1ccccc1 (stereo not given)     NO

###

System: Mycobacterium tuberculosis
Measurement description: Antitubercular activity against Mycobacterium tuberculosis ATCC 35801 infected in CD1 mouse lung at 25 mg/kg, iv after 6 weeks
Assay type: functional
Parameter log10cfu: see the listing below.
Attribute measured: log10cfu

>>> df
                                   compound                study_target  attribute_measured   val
0  O=C(c1ccncc1)N1N=C(c2cc3ccccc3o2)CC1c1ccc(Cl)cc1 (stereo not given)  Mycobacterium tuberculosis            log10cfu  13.8
1  CCn1cc(C(=O)N2N=C(c3cc4ccccc4o3)CC2c2ccc(N(C)C)cc2)c(=O)c2ccc(C)nc21 (stereo not given)  Mycobacterium tuberculosis            log10cfu  4.82
2  CCn1cc(C(=O)N2N=C(c3cc4ccccc4o3)CC2/C=C/c2ccccc2)c(=O)c2ccc(C)nc21 (stereo not given)  Mycobacterium tuberculosis            log10cfu  4.61
3  CCn1cc(C(=O)N2N=C(c3cc4ccccc4o3)CC2c2ccco2)c(=O)c2ccc(C)nc21 (stereo not given)  Mycobacterium tuberculosis            log10cfu  9.66
4  CCn1cc(C(=O)N2N=C(c3cc4ccccc4o3)CC2c2ccccc2[N+](=O)[O-])c(=O)c2ccc(C)nc21 (stereo not given)  Mycobacterium tuberculosis            log10cfu  5.67

###

Tested on: Mycobacterium tuberculosis
Measurement description: Antitubercular activity against Mycobacterium tuberculosis ATCC 35801 infected in CD1 mouse lung at 25 mg/kg, iv after 6 weeks
Type: functional
Listed below: log10cfu values for each entry.
Attribute measured: log10cfu

                                   compound                study_target    val
0  CCn1cc(C(=O)N2N=C(c3cc4ccccc4o3)CC2c2ccccc2)c(=O)c2ccc(C)nc21 (stereo not given)  Mycobacterium tuberculosis  12.23
1  O=C(c1ccncc1)N1N=C(c2cc3ccccc3o2)CC1c1ccccc1 (stereo not given)  Mycobacterium tuberculosis    9.4
2  CCn1cc(C(=O)N2N=C(c3cc4ccccc4o3)CC2c2ccccc2O)c(=O)c2ccc(C)nc21 (stereo not given)  Mycobacterium tuberculosis   4.11
3  O=C(O)c1ccccc1C1CC(c2cc3ccccc3o2)=NN1C(=O)c1ccncc1 (stereo not given)  Mycobacterium tuberculosis   6.24
4  COc1ccc(C2CC(c3cc4ccccc4o3)=NN2C(=O)c2ccncc2)c(O)c1 (stereo not given)  Mycobacterium tuberculosis   6.98

###

System: Mycobacterium tuberculosis
Measurement description: Antitubercular activity against Mycobacterium tuberculosis ATCC 35801 infected in CD1 mouse lung at 25 mg/kg, iv after 6 weeks
Assay type: functional
Threshold check on log10cfu: strictly below 10 is 1; on or above 10 is 0.

Molecule	Group
CCn1cc(C(=O)N2N=C(c3cc4ccccc4o3)CC2c2ccc(Cl)cc2)c(=O)c2ccc(C)nc21 (stereo unspecified)	0
O=C(c1ccncc1)N1N=C(c2cc3ccccc3o2)CC1c1ccco1 (stereo unspecified)	0
COc1ccccc1C1CC(c2cc3ccccc3o2)=NN1C(=O)c1ccncc1 (stereo unspecified)	1
CCn1cc(C(=O)N2N=C(c3cc4ccccc4o3)CC2c2ccccc2OC)c(=O)c2ccc(C)nc21 (stereo unspecified)	1
O=C(c1ccncc1)N1N=C(c2cc3ccccc3o2)CC1c1cccc([N+](=O)[O-])c1 (stereo unspecified)	0
NNC(=O)c1ccncc1	1
CO[C@H]1/C=C/O[C@@]2(C)Oc3c(C)c(O)c4c(O)c(c(/C=N/N5CCN(C)CC5)c(O)c4c3C2=O)NC(=O)/C(C)=C\C=C\[C@H](C)[C@H](O)[C@@H](C)[C@@H](O)[C@@H](C)[C@H](OC(C)=O)[C@@H]1C	1
O=C(c1ccncc1)N1N=C(c2cc3ccccc3o2)CC1c1ccc(O)cc1 (stereo unspecified)	1
CCn1cc(C(=O)N2N=C(c3cc4ccccc4o3)CC2c2ccc(OC)cc2O)c(=O)c2ccc(C)nc21 (stereo unspecified)	1
CCn1cc(C(=O)N2N=C(c3cc4ccccc4o3)CC2c2ccccc2Cl)c(=O)c2ccc(C)nc21 (stereo unspecified)	0
O=C(c1ccncc1)N1N=C(c2cc3ccccc3o2)CC1c1ccccc1[N+](=O)[O-] (stereo unspecified)	1

###

System: Mycobacterium tuberculosis
Measurement description: Antitubercular activity against Mycobacterium tuberculosis ATCC 35801 infected in CD1 mouse lung at 25 mg/kg, iv after 6 weeks
Type: functional
Reported log10cfu values are given for each entry in this list.
Attribute measured: log10cfu

                                   molecule   val
0  CCn1cc(C(=O)N2N=C(c3cc4ccccc4o3)CC2c2cccc([N+](=O)[O-])c2)c(=O)c2ccc(C)nc21 (centres undefined)  2.65
1  CCn1cc(C(=O)N2N=C(c3cc4ccccc4o3)CC2c2ccc(O)cc2)c(=O)c2ccc(C)nc21 (centres undefined)  5.49
2  CCn1cc(C(=O)N2N=C(c3cc4ccccc4o3)CC2c2ccccc2C(=O)O)c(=O)c2ccc(C)nc21 (centres undefined)  5.12
3  CN(C)c1ccc(C2CC(c3cc4ccccc4o3)=NN2C(=O)c2ccncc2)cc1 (centres undefined)  14.4
